Recorded values, source patent US7407988B2.

Examples of compounds with documented pIC50 follow.
Tested on: JURKAT human T-cell line
Experiment: Secondary assay: cell proliferation WST-1, Jurkat
Assay type: cell-based
Settings: Homo sapiens, Table 2, 48 h, read-out: Cell Proliferation Inhibition WST-1 (IC50 unless otherwise specified) Jurkat
Answer as the number alone; pIC50 is minus log10 of concentration in mol/L.

*Q* State the recorded pIC50 for this entry: O=C(/C=C/c1cccc(S(=O)(=O)NC(c2ccccc2)c2ccccc2)c1)NO [PX117773]
*A* 5.92

*Q* State the recorded pIC50 for this entry: O=C(/C=C/c1cccc(S(=O)(=O)Nc2cccc(F)c2)c1)NO [PX117788]
*A* 6.54

*Q* State the recorded pIC50 for this entry: CCn1c2ccccc2c2cc(NS(=O)(=O)c3cccc(/C=C/C(=O)NO)c3)ccc21 [PX117798]
*A* 5.44

*Q* State the recorded pIC50 for this entry: COc1ccc(C(F)(F)F)cc1NS(=O)(=O)c1cccc(/C=C/C(=O)NO)c1 [PX117791]
*A* 5.89

*Q* State the recorded pIC50 for this entry: COc1ccc(NS(=O)(=O)c2cccc(/C=C/C(=O)NO)c2)cc1OC [PX117782]
*A* 6.46

*Q* State the recorded pIC50 for this entry: O=C(/C=C/c1cccc(S(=O)(=O)Nc2ccc(Br)cc2)c1)NO [PX106509]
*A* 6.48

*Q* State the recorded pIC50 for this entry: O=C(CCCCCCCS(=O)(=O)Nc1ccccc1)NO [PX117245]
*A* 5.96

*Q* State the recorded pIC50 for this entry: O=C(/C=C/c1cccc(S(=O)(=O)NCc2cccc3ccccc23)c1)NO [PX117225]
*A* 5.48

*Q* State the recorded pIC50 for this entry: O=C(/C=C/c1ccc(S(=O)(=O)Nc2ccc(-c3ccccc3)cc2)cc1)NO [PX117792]
*A* 6.37

*Q* State the recorded pIC50 for this entry: O=C(/C=C/c1cccc(S(=O)(=O)Nc2ccccc2F)c1)NO [PX117787]
*A* 6.30

====

Test system: NHEK-Ad primary human adult keratinocyte line
Experiment: Secondary assay: cell proliferation WST-1, NHEK-Ad
Type: cell-based
Settings: Homo sapiens, Keratinocyte; Table 2; NHEK-AD; 48 h; read-out: Cell Proliferation Inhibition WST-1 (IC50 unless otherwise specified) NHEK-AD
Examples of compounds with documented IC50 follow.

Some compounds with recorded IC50:
CC(/C=C/C(=O)NO)=C\[C@@H](C)C(=O)c1ccc(N(C)C)cc1 [TSA, trichostatin A, reference compound] | 0.2 µM
O=C(/C=C/c1cccc(S(=O)(=O)Nc2ccc3ccccc3c2)c1)NO | 0.75 µM
O=C(CCCCCCCS(=O)(=O)Nc1ccccc1)NO | 0.52 µM

Now take the following compound into account.
*Q* State the recorded IC50 for this entry: O=C(/C=C/c1cccc(S(=O)(=O)Nc2ccccc2)c1)NO
*A* 1.5 µM

====

Examples of compounds with documented melting point follow.
Use °C as the unit, but write only the number.

Some compounds with recorded melting point:
O=C(/C=C/c1cccc(S(=O)(=O)Nc2cccc3ccccc23)c1)NO | 180
O=C(/C=C/c1cccc(S(=O)(=O)NCc2ccc3c(c2)OCO3)c1)NO | 163
O=C(/C=C/c1cccc(S(=O)(=O)Nc2ccc(OC(F)(F)F)cc2)c1)NO | 131
COc1ccc(NS(=O)(=O)c2cccc(/C=C/C(=O)NO)c2)cc1OC | 191
COc1ccc(S(=O)(=O)Nc2cccc(/C=C/C(=O)NO)c2)cc1OC | 158

*Q* State the recorded melting point for this entry: O=C(/C=C/c1cccc(S(=O)(=O)Nc2ccc(Cl)cc2)c1)NO
*A* 198

*Q* State the recorded melting point for this entry: O=C(/C=C/c1cccc(S(=O)(=O)NCc2ccccc2)c1)NO
*A* 179
